system: NCI-H522; assay: NCI tumour cell line growth inhibition, 48 h
Calls of active or inactive are those of the source. Cut-off read from the data, not from the text of the source: active = GI50 up to about 1.1 µM and inactive = higher.
Give your call using only these classes: active, inactive

O=C1/C(=C/c2cccs2)NC(=S)N1CN1CCCCC1; inactive
C(=N\N=C1NCCN1)/c1ccc2ccccc2c1; inactive
O=c1cccccc1NCCCCNc1cccccc1=O; inactive

Task: Per the assay record, what outcome was assigned to Cc1nc2c(N)ncnc2o1 ?
Output: inactive

Task: Would you mind doing CCCCN(CCCC)CCCn1cnc2ncccc2c1=O as well?
Output: inactive

Task: Would you mind doing Cc1cnc(/C=N\NC(N)=S)c2cccc(N)c12 as well?
Output: active

Task: Would you mind doing COc1ccc2oc(=N)c(C(=O)NCc3ccccc3)cc2c1 as well?
Output: inactive

###

system: UO-31; assay: NCI tumour cell line growth inhibition, 48 h
Calls of active or inactive are those of the source. No stated cut-off is given here; in the data, active = GI50 up to about 1.1 µM and inactive = higher. Peptide text beside a SMILES is read from it. * marks the point of attachment. Cbz = O=C(OCc1ccccc1)*; CH2Cl = ClC*
result.type: GI50

Cc1ccc(/N=N\c2c(O)c(S(=O)(=O)O)cc3cc(S(=O)(=O)O)ccc23)c(C)c1; > 100 µM (inactive)

Report GI50 for each item below.
1. CC(C)CC(NC(=O)OCc1ccccc1)C(=O)NC(Cc1ccccc1)C(=O)CCl (stereo not drawn) (Cbz-Leu-Phe-CH2Cl; configuration not given here)
2. CCOC(=O)CCn1cnc(N)n1
3. CCOC(=O)NC(=O)c1cn(CCCO)c(=O)[nH]c1=O
4. CCCCOCCOC1=CC(=O)c2c(O)ccc(O)c2C1=O

Output:
1. 6.46 µM (inactive)
2. > 100 µM (inactive)
3. > 100 µM (inactive)
4. 1.64 µM (inactive)

###

tested on: SNB-75; experiment: NCI tumour cell line growth inhibition, 48 h
Active and inactive are the calls of the source. Cut-off read from the data, not from the text of the source: active = GI50 up to about 1.1 µM and inactive = higher.
result.type: GI50

Worked cases, GI50 given:
CC/C(Cl)=N\OC(=O)Nc1ccc(F)c([N+](=O)[O-])c1; 18.2 µM (inactive)
Nc1c(Cl)ncnc1NCCCCCCCCCCCCNc1ncnc(Cl)c1N; 1.28 µM (inactive)
CSc1ccc2c(cc1=O)C(NC(=O)c1ccc(OC(C)=O)cc1)CCc1cc(O)c(O)c(O)c1-2 (stereo unspecified); 20 µM (inactive)

Report GI50 for each item below.
1. C[N+]12CCCCC1C(CN1C(=O)Cc3c4ccccc4c(c4ccccc34)CC1=O)CCC2 (stereo unspecified)
2. Cc1cc(O)nc(NNC(C#N)c2ccc([N+](=O)[O-])cc2)n1 (stereo unspecified)
3. N#CC1(C#N)NC(c2cccnc2)C(C#N)(C#N)NC1c1cccnc1 (stereo unspecified)
4. CC1=C(C)C(=O)c2c(cc3ccc4ccccc4n23)C1=O
5. CCOc1ccc(NC(=O)C(=O)C(/C(=N/N)C(=O)OC)c2nc3ccc([N+](=O)[O-])cc3nc2O)cc1 (stereo unspecified)
6. CC(C)(C)C(=O)Nc1ccccc1Br
7. C/C(=N\NC(=S)N1CCN(c2ccccn2)CC1)c1ccccn1

Output:
["> 100 µM (inactive)", "34.8 µM (inactive)", "47.9 µM (inactive)", "> 100 µM (inactive)", "> 100 µM (inactive)", "> 100 µM (inactive)", "3.23 µM (inactive)"]

Task: Recorded GI50 of COC(=O)C1C(=O)O[C@@H](c2ccc(OC)cc2)C1C(=O)OC (stereo partly specified) , please.
Output: > 100 µM (inactive)
